For each entry below, report its Activity value.
# MEASUREMENT_TARGET: Estrogen receptor (Homo sapiens) (UniProt P03372)
# Sequence (P03372 whole entry, the tested form may be a part): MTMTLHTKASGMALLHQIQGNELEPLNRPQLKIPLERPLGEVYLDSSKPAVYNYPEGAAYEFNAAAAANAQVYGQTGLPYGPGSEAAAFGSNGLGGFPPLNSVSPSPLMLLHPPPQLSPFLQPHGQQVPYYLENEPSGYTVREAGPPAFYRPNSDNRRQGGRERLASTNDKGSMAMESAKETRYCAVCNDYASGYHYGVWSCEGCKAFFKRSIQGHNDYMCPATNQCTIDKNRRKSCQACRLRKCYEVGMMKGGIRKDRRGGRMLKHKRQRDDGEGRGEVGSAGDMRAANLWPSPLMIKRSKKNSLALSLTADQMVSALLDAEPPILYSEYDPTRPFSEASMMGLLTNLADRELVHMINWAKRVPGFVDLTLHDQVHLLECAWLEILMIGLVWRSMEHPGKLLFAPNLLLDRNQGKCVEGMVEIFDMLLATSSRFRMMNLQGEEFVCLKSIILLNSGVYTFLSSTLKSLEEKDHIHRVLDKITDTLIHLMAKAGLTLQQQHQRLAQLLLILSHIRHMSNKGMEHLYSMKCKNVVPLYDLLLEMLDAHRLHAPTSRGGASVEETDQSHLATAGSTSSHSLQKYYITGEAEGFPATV
# EXPERIMENT_SUMMARY: Agonist activity at human Gal4-fused ER-alpha expressed in HEK293 cells at 10 uM by luciferase reporter gene assay relative to 17beta-estradiol
# Assay type: cell-based

Activity reported for this compound "CCC[Si](CCC)(c1ccc(O)c(C)c1)c1ccc(O)c(C)c1" : 5.6%

Activity reported for this compound "Oc1ccc(Sc2ccc(O)cc2)cc1" : 37.8%

Activity reported for this compound "CC(C)(c1ccc(OS(N)(=O)=O)cc1)c1ccc(OS(N)(=O)=O)cc1" : 9.5%

Activity reported for this compound "CC(C)(c1ccc(O)cc1)c1ccc(O)cc1" : 28.7%
